Assay: qHTS assay to identify small molecule antagonists of the farnesoid-X-receptor (FXR) signaling pathway - cell viability counter screen (AID 743221); further: nearly all actives have a fitted effect of over 50% in size
Conditions: FXR-bla HEK293T viability, CellTiter-Glo luminescence, 16 h; series mostly up to 62.6 µM
Source text: National Center for Advancing Translational Sciences [NCATS] NIH Chemical Genomics Center [NCGC] U.S. Environmental Protection Agency [EPA] National Institutes of Environmental Health Sciences [NIEHS] National Toxicology Program [NTP] U.S. Food and Drug Administration [FDA] The farnesoid-X-receptor (FXR), a nuclear hormone receptor, is highly expressed in liver, intestine, kidney and adrenal cortex. Natural ligands of FXR are the bile acids (Cholic acid, Chenodeoxy cholic acid etc). […]
Results filed as inconclusive are left out. Calls of active or inactive are those of the source. The call rests on the fitted dose curve; in most records, active means well fitted cell-killing curve with a large enough effect in the repeat runs (not every such curve was filed as active); inconclusive means weak or mixed curves, or effect the other way; inactive means no such curve, though single readings can be large or run the other way.
Returns: one label drawn from active, inactive

Prompt: Name the outcome recorded for Brc1cc2ccccc2c2ccccc12 in the assay.
Response: inactive

Prompt: Name the outcome recorded for CCOc1ccc(Cc2nccc3cc(OCC)c(OCC)cc23)cc1OCC in the assay.
Response: inactive

Prompt: Name the outcome recorded for NNC(=O)CP(=O)(c1ccccc1)c1ccccc1 in the assay.
Response: inactive

Prompt: Name the outcome recorded for CCCCN1CCCC1C(=O)Nc1c(C)cc(C)cc1C (configuration not stated) in the assay.
Response: inactive

Prompt: Name the outcome recorded for C(=C\c1ccccc1)/c1ccccc1 in the assay.
Response: inactive

Prompt: Name the outcome recorded for COc1ccccc1Oc1c(NS(=O)(=O)c2ccc(C(C)(C)C)cc2)nc(-c2ncccn2)nc1OCCO in the assay.
Response: inactive

Prompt: Name the outcome recorded for CCCCN(CCCC)C(C(N)=O)c1ccc(OC)cc1 (configuration not stated) in the assay.
Response: inactive

Prompt: Name the outcome recorded for Cc1ccc(CO)cc1 in the assay.
Response: inactive

Prompt: Name the outcome recorded for CCCCN(CCN(CCCC)C(=O)N1CCOCC1)C(=O)N1CCOCC1 in the assay.
Response: inactive

Prompt: Name the outcome recorded for CC(=O)NC1(c2cccc(F)c2)CCN(CC[C@@]2(c3ccc(Cl)c(Cl)c3)CN(c3ccccc3)C(=O)CO2)CC1 in the assay.
Response: active

Prompt: Name the outcome recorded for N#[N+]c1ccc2c(S(=O)(=O)[O-])cccc2c1O in the assay.
Response: inactive

Prompt: Name the outcome recorded for Cc1ccc(Cl)c(Nc2ccccc2C(=O)O)c1Cl in the assay.
Response: inactive

###

Assay: Caspase-3/7 induction in HepG2 cells by small molecules, qHTS cell viability counter screen (AID 1346981); further: nearly all actives have a fitted effect of over 30% in size; further: potency means the concentration at half of the fitted maximal effect
Conditions: CellTiter-Fluor fluorescence, 17 h; series mostly up to 92.4 µM
Inconclusive results are not listed. Activity calls are given as the source filed them. The call rests on the fitted dose curve; in most records, active means well fitted cell-killing curve with a large enough effect in the repeat runs; inconclusive means weak or mixed curves, or effect the other way; inactive means flat fitted curve, though single readings scatter.
property_name: Potency

[
  {
    "compound": "CC(C)Nc1cccnc1N1CCN(C(=O)c2cc3cc(NS(C)(=O)=O)ccc3[nH]2)CC1",
    "Potency": "inactive"
  },
  {
    "compound": "CCCCCC[C@@H](O)C/C=C\\CCCCCCCC(=O)O",
    "Potency": "inactive"
  },
  {
    "compound": "CCOC(=O)/C=C/C(=O)OCC",
    "Potency": "inactive"
  },
  {
    "compound": "Cc1c(C)c2c(c(C)c1OC(=O)CCC(=O)OCCO)CC[C@@](C)(CCC[C@H](C)CCC[C@H](C)CCCC(C)C)O2",
    "Potency": "inactive"
  },
  {
    "compound": "NCCNCCO",
    "Potency": "inactive"
  },
  {
    "compound": "Cc1cccc(O)c1N",
    "Potency": "inactive"
  },
  {
    "compound": "CC(=O)c1cc2ccccc2s1",
    "Potency": "inactive"
  },
  {
    "compound": "C[C@H]1C[C@H](O)c2ccsc2S1(=O)=O",
    "Potency": "inactive"
  }
]

Prompt: Entry C=C1CCC2CC1C2(C)C (stereo unspecified) needs its Potency filled in; supply it.
Response: inactive

Prompt: Entry CCCCCCCC/C=C\CCCCCCCCCCCC(=O)O needs its Potency filled in; supply it.
Response: inactive

Prompt: Entry CC(C)c1nc(CN(C)C(=O)N[C@H](C(=O)N[C@@H](Cc2ccccc2)C[C@H](O)[C@H](Cc2ccccc2)NC(=O)OCc2cncs2)C(C)C)cs1 needs its Potency filled in; supply it.
Response: 21.1 µM (active)

Prompt: Entry CC1=C(Br)C(=O)C(Br)=C/C1=C(/c1ccccc1S(=O)(=O)O)c1cc(Br)c(O)c(Br)c1C needs its Potency filled in; supply it.
Response: 37 µM (active)

Prompt: Entry CCC(C)(C)OC needs its Potency filled in; supply it.
Response: inactive

Prompt: Entry CN1C(C(=O)Nc2ccccn2)=C(O)c2sccc2S1(=O)=O needs its Potency filled in; supply it.
Response: inactive

Prompt: Entry CCOC(=O)c1ccc(C#Cc2ccc3c(c2)C(C)(C)CCS3)nc1 needs its Potency filled in; supply it.
Response: inactive

Prompt: Entry O=C=Nc1ccc(Cl)c(Cl)c1 needs its Potency filled in; supply it.
Response: inactive

Prompt: Entry Cc1ccc(CO)cc1 needs its Potency filled in; supply it.
Response: inactive

Prompt: Entry CN1CCCC(n2nc(Cc3ccc(Cl)cc3)c3ccccc3c2=O)CC1 (stereo unspecified) needs its Potency filled in; supply it.
Response: 26.6 µM (active)
